As shown below, each of these compounds has a reported TGI value.
- Tested on: CAKI-1 renal
- protocol: NCI tumour cell line growth inhibition, 48 h

Some compounds with recorded TGI:
compound	TGI
C#CC1(O)CC(c2ccccc2)N(C)C(c2ccccc2)C1 (stereo not drawn)	> 100 µM
O=C1/C(=C/c2cccc(F)c2)CN(C(=O)C(Cl)Cl)C/C1=C\c1cccc(F)c1	1.44 µM
COC(=O)/C=C/N1CC1	> 10 µM
CN(C)c1ccc(/C=N/NC(=O)c2cnc3ccccc3c2)cc1	> 100 µM
NC(C(=O)O)c1ccc(C(=O)O)cc1 (stereo not drawn)	> 100 µM
C[Si](C)(C)C#CCOC=C1CC1	> 100 µM
CC(C)(C)OC(=O)CC(NC(=O)OC(C)(C)C)C(=O)Oc1ccc([N+](=O)[O-])cc1 (stereo not drawn)	> 100 µM
Cc1ccc2c(c1)C/C(=C\c1ccccc1C(=O)O)C2=O	> 100 µM

Record `CC(=O)O[C@@H]1CN(S(=O)(=O)c2ccc(C)cc2)C[C@@H]1C1CCCCC1` . Reported TGI: 45.6 µM

Record CC(CNc1nc(Nc2ccc(Cl)c(Cl)c2)nc(C(Cl)(Cl)Cl)n1)N(C)C (stereo not drawn) . Reported TGI: 3.59 µM

Record CC1CC(c2ccc([N+](=O)[O-])cc2)=Nc2ccccc2S1=O (stereo not drawn) . Reported TGI: 61.2 µM

Record `COC(=O)c1ccccc1Nc1ccccc1C(=O)OC` . Reported TGI: > 100 µM

Record `O=C(N1CCN(c2ccccc2)CC1)N(C(=O)C1(c2ccc(Cl)cc2)CCCC1)S(=O)(=O)c1ccccc1` . Reported TGI: 71.4 µM

Record `CCN(CC)c1ccc(N=C2C=CC(=C(C#N)C#N)c3ccccc32)c(C)c1` . Reported TGI: 5.4 µM

Record `COc1ccc(-c2c(C#N)cnc(N)c2-c2nc3cc(C)c(C)cc3[nH]2)cc1` . Reported TGI: > 100 µM

Record `CCCCCCC(=O)CC(=O)C(=O)Nc1ccccc1C` . Reported TGI: > 100 µM

Record `Nc1cc(N)c2nc(-c3ccccc3)c(Oc3ccc(Cl)c(Cl)c3)nc2c1` . Reported TGI: 35.9 µM

Record COc1cc2c(cc1O)N=C[C@@H]1CCC(O)N1C2=O (mixture of isomers) . Reported TGI: 11.7 µM

Record `Cc1nc2c(s/c(=N\N)n2-c2ccccc2)c(=O)n1C` . Reported TGI: > 100 µM

Record `CC(=O)NC1=CC(=O)C=C(Cl)C1=O` . Reported TGI: > 100 µM

Record `COc1ccc(-c2cc3c(N)ncnc3o2)cc1` . Reported TGI: > 25 µM

Record `Nc1ccc2c(c1)S(=O)(=O)c1cc(N)ccc1-2` . Reported TGI: > 100 µM

Record `COc1ccc(S(=O)(=O)N/N=C/CN2C(=O)c3ccccc3C2=O)cc1` . Reported TGI: > 100 µM

* * *

- Tested on: NCI-H522 lung
- protocol: NCI tumour cell line growth inhibition, 48 h
Where a SMILES comes first, the peptide text is derived from it. [ ]: non-standard residue; d: D form. The star is where a group is joined. ξ: configuration not given here. dIva = CC[C@@](C)(N)C(=O)O; Aib = CC(C)(N)C(=O)O; ξP = O=C(O)C1CCCN1; βAla = NCCC(=O)O; X5 = OCN*
As shown below, each of these molecules has a reported TGI value.

Some molecules with recorded TGI:
molecule	assay-system	TGI
CC[C@@](C)(NC(=O)[C@H](C)NC(=O)CCNC(=O)C(C)(C)NC(=O)[C@H](C)NC(=O)[C@@H]1CCCN1C(=O)[C@@](C)(CC)NC(=O)[C@H](Cc1ccccc1)NC(=O)C1CCCN1C(=O)C(C)(C)NC(=O)C1CCCN1C(=O)C(C)(C)NC(C)=O)C(=O)NCCC(=O)N[C@@H](CC(C)C)C(=O)NC(C)(C)C(=O)NCCC(=O)N[C@@H](CC(C)C)C(=O)NC(C)(C)C(=O)NC(C)(C)C(=O)N[C@@H](CC(C)C)C(=O)NCCC(=O)NCO (some centres not stated) (Ac-[Aib][ξP][Aib][ξP]F[dIva]PA[Aib][βAla]A[dIva][βAla]L[Aib][βAla]L[Aib][Aib]L[βAla]-X5)	NCI-H522 lung	0.304 µM
CCOC(=O)C1C(=O)c2cccc(OC)c2C2COC(=O)N12 (configuration not stated)	NCI-H522 lung	> 100 µM
COc1cc[nH]c1/C=C1\C(=O)Nc2ccc([N+](=O)[O-])c(N3CC[C@@H](O)C3)c21	NCI-H522 lung	1.23 µM

Record CC1SC(c2cccc(Cl)c2)N(NC(=O)C(O)c2ccccc2)C1=O (configuration not stated) . Reported TGI: > 100 µM

Record Cc1ccc(NC(=O)CC2C(=O)Nc3ccccc3S2(=O)=O)cc1C (configuration not stated) . Reported TGI: > 100 µM

Record O=C1OC(=O)C2C1C1C(c3ccccc3)=C(c3ccccc3)C2(O)C2C(=O)OC(=O)C12 (configuration not stated) . Reported TGI: > 100 µM
